assay: Primary qHTS for inhibitors of nuclear receptor binding SET domain protein 2 (NSD2) in an isogenic RCH-ACV NSD2 p.E1099K mutant (9B) (AID 1645876); conditions: RCH-ACV (leukaemia line) NSD2 E1099K (9B) viability, CellTiter-Glo, 72 h; series mostly up to 44.9 µM; note: nearly all actives have a fitted effect of over 70% in size
Inconclusive results are not listed. Activity calls are given as the source filed them. Calls come from the whole dose curve; as a rule, active = well fitted inhibition curve with a large enough effect; inconclusive = small, poorly fitted or top-dose-only effect; inactive = flat fitted curve, though single readings scatter.
Return exactly one item of true (1) for active, false (0) for inactive

// below: answered compounds
COMPOUND	ASSIGNED_CATEGORY
C[C@H]1O[C@@H](O[C@H]2CC[C@]3(CO)C4CC[C@]5(C)[C@@H](C6=CC(=O)OC6)CC[C@]5(O)[C@@H]4CC[C@H]3C2)[C@H](O)[C@H](O)[C@@H]1O[C@@H]1O[C@H](CO)[C@@H](O)[C@H](O)[C@H]1O (stereo partly specified)	true (1)
O=C1N[C@@H](Cc2ccccc2)CN2CCCC[C@@H]12	false (0)
N#CC(O[C@@H]1O[C@H](CO)[C@@H](O)[C@H](O)[C@H]1O)c1ccccc1 (stereo partly specified)	false (0)
COC1CCCC(C)OC(=O)Cc2cc(O)cc(O)c2C(=O)C1 (stereo unspecified)	true (1)
Cc1[nH]c2ccc(Cl)cc2c1CCN(C)C	false (0)

# lookup: test call for CO[C@H]1[C@@H](O)[C@@H](C)O[C@@H](O[C@@H]2C=C3C(OC(C)=O)CC4(O)C(CC[C@]5(C)[C@@H](C6=CC(=O)OC6)CC[C@]45O)[C@@]3(C)CC2)[C@@H]1O (stereo partly specified)
true (1)

# lookup: test call for "CCCN(CCC)[C@@H]1CCc2ccc3[nH]c(C#N)cc3c2C1"
false (0)

# lookup: test call for CC(=O)O[C@H]1C[C@@H](C)O[C@H]2O[C@@H]3CC4CC[C@@H]5C(CC[C@]6(C)[C@@H](C7=CC(=O)OC7)CC[C@]56O)[C@@]4(C=O)C[C@H]3O[C@]21O (stereo partly specified)
true (1)

# lookup: test call for "C[C@]12CC[C@H](O)C[C@@H]1CC[C@@H]1[C@@H]2CC[C@]2(C)[C@@H](C3=CC(=O)OC3)CC[C@]12O"
true (1)

# lookup: test call for COC1CC(O[C@H]2CC[C@@]3(C)C(CCC4C3CC[C@]3(C)C(C5=CC(=O)OC5)CCC43O)C2)OC(C)C1OC1OC(COC2OC(CO)C(O)C(O)C2O)C(O)C(O)C1O (stereo partly specified)
true (1)

# lookup: test call for "CCCCn1cc(C(=O)c2cccc3ccccc23)c2ccccc21"
false (0)

# lookup: test call for Cc1sc2c(c1C)C(c1ccc(Cl)cc1)=NC(CC(=O)OC(C)(C)C)c1nnc(C)n1-2 (stereo unspecified)
true (1)

# lookup: test call for "Cc1ccccc1CN1CCC(N2CCC(n3c(=O)[nH]c4ccccc43)CC2)CC1"
false (0)

# lookup: test call for "CN(C(=O)CN1C(=O)COc2cc(Cl)c(Cl)cc21)[C@@H](CN1CCCC1)c1ccc(-c2cccc(C(N)=O)c2)cc1"
true (1)

# lookup: test call for COC1C=CC23c4cc5c(cc4COC2(O)CN(C)C3C1)OCO5 (stereo unspecified)
false (0)

# lookup: test call for "C[C@]12CC[C@H](O)C[C@H]1CC[C@@H]1[C@@H]2[C@H](O)C[C@]2(C)[C@@H](c3ccc(=O)oc3)CC[C@]12O"
true (1)

All figures here come from PubChem BioAssay (NCATS).
